Where do these numbers come from? They come from patent US4551445A.

The reader will find reported Anti-Antidiuretic pA2 values listed item by item below.
Tested on: antidiuretic response to arginine vasopressin (ADH)
Run Description: Anti-antidiuretic: antagonism of the antidiuretic response to subsequent injections of vasopressin
Type: in vivo, rats
Conditions: Table 2; estimated in vivo pA2, volume of distribution 67 ml/kg
Starred links: 1 amine or outer side, 2 acyl side, 3 side chain; linkers in the order of their positions; H or OH if unused. Positions of bridges follow the written chain, without caps; N, C: chain ends. Non-standard residues stand in square brackets, D forms with d. Residues, ends and D or L forms follow the SMILES beside them. X1 = O=C(CC1(S[*:2])CCCCC1)[*:1]; Abu = CC[C@H](N)C(=O)O
Could you keep your reply to the number by itself?

# Molecule, Quantity Measured, Measured Value
records = [
    ("N=C(N)NCCC[C@H](NC(=O)[C@@H]1CCCN1C(=O)[C@@H]1CSSC2(CCCCC2)CC(=O)N[C@H](Cc2ccccc2)C(=O)N[C@@H](Cc2ccccc2)C(=O)NCC(=O)N[C@@H](CC(N)=O)C(=O)N1)C(=O)NCC(N)=O [d(CH2)5 D-Phe^2 Gly^4 AVP] ([dF]FGNCPRG-NH2; linker N-5 via X1)", "Anti-Antidiuretic pA2", 5.85),
    ("CC[C@H](C)[C@@H]1NC(=O)[C@H](Cc2ccccc2)NC(=O)[C@@H](Cc2ccccc2)NC(=O)CC2(CCCCC2)SSC[C@@H](C(=O)N2CCC[C@H]2C(=O)N[C@@H](CCCNC(=N)N)C(=O)NCC(N)=O)NC(=O)[C@H](CC(N)=O)NC1=O [d(CH2)5 D-Phe^2 Ile^4 AVP] ([dF]FINCPRG-NH2; linker N-5 via X1)", "Anti-Antidiuretic pA2", 8.24),
]

// returns Anti-Antidiuretic pA2 for CC[C@@H]1NC(=O)[C@H](Cc2ccccc2)NC(=O)[C@@H]([C@H](C)CC)NC(=O)CC2(CCCCC2)SSC[C@@H](C(=O)N2CCC[C@H]2C(=O)N[C@@H](CCCNC(=N)N)C(=O)NCC(N)=O)NC(=O)[C@H](CC(N)=O)NC1=O [d(CH2)5 D-Ile^2 Abu^4 AVP] ([dI]F[Abu]NCPRG-NH2; linker N-5 via X1) with antidiuretic response to arginine vasopressin (ADH); value = 8.22
